# Test system: SF-295 CNS
# Run description: NCI tumour cell line growth inhibition, 48 h
Reported metric: TGI

{"columns": ["Entry smiles", "Reported metric", "Result"],
 "data": [
  ["C[C@@H](NC(=O)Nc1cccc(C(=O)Nc2cc(C(C)(C)C)ccc2C(=O)O)n1)c1ccccc1", "TGI", "76.2 µM"],
  ["N#CCC1CCN(c2nc(Nc3ccc(N4CCC(O)CC4)cc3)c3c(=O)[nH]ncc3n2)CC1", "TGI", "> 100 µM"],
  ["Nc1nc(-c2ccccn2)c(-c2ccc3ncccc3n2)s1", "TGI", "> 25 µM"],
  ["CSc1cnc2ccccc2c1Sc1cn(C)c2ccccc2c1=O", "TGI", "> 100 µM"],
  ["Nc1nc(NCc2ccccc2)cc(NCc2ccccc2)n1", "TGI", "69 µM"],
  ["COc1ccc(Cc2c3cc(OC)c(OC)cc3cc[n+]2C)cc1", "TGI", "> 24.7 µM"]
]}

---

# Tested on: MDA-MB-435
# Run description: NCI tumour cell line growth inhibition, 48 h
Reported metric: log10 of TGI (log10 of the value in µM)

{"columns": ["Compound", "Readout number"],
 "data": [
  ["COc1ccc(-c2cc(-c3ccc(Cl)cc3)c(C#N)c(=O)n2CCCCCC(=O)Nc2ccccc2N)cc1", 1.27],
  ["FC(F)(F)c1ccc2c(c1)nc(Cc1ccc(Cl)cc1)n2CC1CCCN2CCCCC12 (stereo not drawn)", 1.39],
  ["COc1cccc(O)c1-c1cc(=O)c2c(O)c(OC)c(OC)c(OC)c2o1", 1.74],
  ["CCCN1CCCC(c2ccc(Nc3nc(Nc4cc(F)ccc4C(N)=O)c4cc[nH]c4n3)c(OC)c2)C1 (stereo not drawn)", 0.73],
  ["CC12CCC(C(=Nc3ccc([N+](=O)[O-])cc3)C1=O)C2(C)C (stereo not drawn)", 1.81],
  ["O=[N+]([O-])c1cccc(-c2ccc([C@H]3CC(c4ccc(Cl)cc4)=NN3)o2)c1", 1.74]
]}

---

# Test system: T-47D breast
# Run description: NCI tumour cell line growth inhibition, 48 h

{"columns": ["Compound", "TGI"],
 "data": [
  ["CCOC(=O)c1c2ccccc2n2c(=O)n(-c3ccccc3)nnc12", "71.5 µM"],
  ["CC1=C(C(N)=O)C(c2ccncc2)C(C#N)C(=O)N1 (stereo unspecified)", "> 100 µM"],
  ["CCOC(=O)c1sc(N)nc1N1CCCC1", "> 100 µM"],
  ["COc1ccc(C2OC2C(=O)C23CC4CC(CC(C4)C2)C3)cc1 (stereo unspecified)", "> 100 µM"],
  ["O=c1cc(O)c1=O", "> 100 µM"],
  ["Nc1ncnc2c1ncn2C1SC(CO)C(O)C1O (stereo unspecified)", "26 µM"]
]}

---

# Test system: UACC-62 melanoma
# Run description: NCI tumour cell line growth inhibition, 48 h
Measured GI50, listed per entry for reference.
Reported metric: GI50

{"columns": ["Entry smiles", "Tested on", "Result"],
 "data": [
  ["CNC(=S)N/N=C/CSC/C=N/NC(=S)NC", "UACC-62 melanoma", "> 100000 nM"],
  ["CC1(C)CCC(c2ccc(Cl)cc2)=C(CN2CCN(c3ccc(C(=O)NS(=O)(=O)c4ccc(N[C@H](CCN5CCOCC5)CSc5ccccc5)c(S(=O)(=O)C(F)(F)F)c4)cc3)CC2)C1", "UACC-62 melanoma", "1430 nM"],
  ["O[C@@H]1CCCCN1Cc1cc2cc3c(cc2c2cc(OCc4ccccc4)ccc12)OCO3", "UACC-62 melanoma", "1890 nM"],
  ["NC1=Nc2cc(OCCCCN3Cc4ccccc4C3)c(OCC3CC3)cc2C12CCCC2", "UACC-62 melanoma", "1690 nM"]
]}
